Target: T1, human CD19 (human, UniProt P15391 20-556)
T1 construct: also called B-cell surface antigen B4; B-cell antigen CD19
T1 sequence: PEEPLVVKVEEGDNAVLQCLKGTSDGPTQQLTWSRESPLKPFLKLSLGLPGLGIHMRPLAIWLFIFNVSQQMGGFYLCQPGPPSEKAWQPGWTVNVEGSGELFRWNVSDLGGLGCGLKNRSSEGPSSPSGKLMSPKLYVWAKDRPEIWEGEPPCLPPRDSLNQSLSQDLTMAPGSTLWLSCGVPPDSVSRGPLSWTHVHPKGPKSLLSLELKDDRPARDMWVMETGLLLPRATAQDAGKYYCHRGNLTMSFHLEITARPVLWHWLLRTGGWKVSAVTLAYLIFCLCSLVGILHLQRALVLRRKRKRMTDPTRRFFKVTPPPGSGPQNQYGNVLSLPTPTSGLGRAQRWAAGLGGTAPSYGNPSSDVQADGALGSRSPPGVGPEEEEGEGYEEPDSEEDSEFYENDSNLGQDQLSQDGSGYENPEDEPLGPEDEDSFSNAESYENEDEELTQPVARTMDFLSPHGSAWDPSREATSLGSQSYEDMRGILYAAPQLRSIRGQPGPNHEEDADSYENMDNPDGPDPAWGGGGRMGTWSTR
Experiment: binding affinity relative to the parent H1L1 mAb (Example 5); assay and format not named on the sheet
test_readout: Fold change binding (fold)
Answers are plain numbers, in fold.

Example entries and their recorded answers appear below.
H1.144 / L1 (antibody, V domains shown, vs H1L1 (Kabat): VH D101N; also called 4G7 H1.144_L1) VH: EVQLVESGGGLVKPGGSLKLSCAASGYTFTSYVMHWVRQAPGKGLEWIGYINPYNDGTKYNEKFQGRVTISSDKSISTAYMELSSLRSEDTAMYYCARGTYYYGSRVFNYWGQGTLVTVSS VL: DIVMTQSPATLSLSPGERATLSCRSSKSLLNSNGNTYLYWFQQKPGQSPQLLIYRMSNLASGVPDRFSGSGSGTEFTLTISSLEPEDFAVYYCMQHLEYPFTFGAGTKLEIK	2.26
H1.196 / L1.146 (antibody, V domains shown, vs H1L1 (Kabat): VH T57P/S100cT/R100dS; VL S27eV/A55N/F96N; also called 4G7 H1.196_L1.146) VH: EVQLVESGGGLVKPGGSLKLSCAASGYTFTSYVMHWVRQAPGKGLEWIGYINPYNDGPKYNEKFQGRVTISSDKSISTAYMELSSLRSEDTAMYYCARGTYYYGTSVFDYWGQGTLVTVSS VL: DIVMTQSPATLSLSPGERATLSCRSSKSLLNVNGNTYLYWFQQKPGQSPQLLIYRMSNLNSGVPDRFSGSGSGTEFTLTISSLEPEDFAVYYCMQHLEYPNTFGAGTKLEIK	3.57

# input for lookup
For H1.203 / L1.161 (antibody, V domains shown, vs H1L1 (Kabat): VH D55S/K58E/S100cT; VL L27cQ/S27eV/G29S/A55N/F96I; also called 4G7 H1.203_L1.161) VH: EVQLVESGGGLVKPGGSLKLSCAASGYTFTSYVMHWVRQAPGKGLEWIGYINPYNSGTEYNEKFQGRVTISSDKSISTAYMELSSLRSEDTAMYYCARGTYYYGTRVFDYWGQGTLVTVSS VL: DIVMTQSPATLSLSPGERATLSCRSSKSLQNVNSNTYLYWFQQKPGQSPQLLIYRMSNLNSGVPDRFSGSGSGTEFTLTISSLEPEDFAVYYCMQHLEYPITFGAGTKLEIK , what is its reported Fold change binding?
2.92

Value source: patent US20100272723A1
